This listing pairs compounds with measured Ki.
Biological target: UniProt P25774
Sequence (P25774 whole entry): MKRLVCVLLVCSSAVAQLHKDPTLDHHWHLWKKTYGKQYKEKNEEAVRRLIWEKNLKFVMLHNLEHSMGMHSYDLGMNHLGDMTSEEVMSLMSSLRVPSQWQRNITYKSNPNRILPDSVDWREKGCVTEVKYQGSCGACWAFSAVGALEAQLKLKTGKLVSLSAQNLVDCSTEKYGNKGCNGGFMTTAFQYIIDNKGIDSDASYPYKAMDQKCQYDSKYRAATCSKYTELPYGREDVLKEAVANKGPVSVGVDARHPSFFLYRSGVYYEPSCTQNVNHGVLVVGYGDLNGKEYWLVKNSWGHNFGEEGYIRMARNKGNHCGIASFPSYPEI
Return type: number; implicit unit nM.

[[record]]
chemicalstring = "CCC[C@H](NC(=O)C1(NC(=O)c2ccc(OC(F)(F)F)cc2)CCCCC1)C(=O)c1nnc(-c2ccc(OC)cc2)o1"
quantitymeasured = "Ki"
measurednumber = 20000

[[record]]
chemicalstring = "CCC[C@H](NC(=O)OC(C)(C)C)C(=O)c1nnc(-c2ccc(N(C)C)cc2)o1"
quantitymeasured = "Ki"
measurednumber = 28000

[[record]]
chemicalstring = "CCC[C@H](NC(=O)OCc1ccccc1)C(=O)c1nnc(-c2ccco2)o1"
quantitymeasured = "Ki"
measurednumber = 2000

[[record]]
chemicalstring = "CCC[C@H](NC(=O)C1(NC(=O)c2ccc(OC(F)(F)F)cc2)CCCCC1)C(=O)c1nnc(-c2ccco2)o1"
quantitymeasured = "Ki"
measurednumber = 350

[[record]]
chemicalstring = "CCC[C@H](NC(=O)C1(NC(=O)OC(C)(C)C)CCCCC1)C(=O)c1nnc(-c2ccco2)o1"
quantitymeasured = "Ki"
measurednumber = 960

[[record]]
chemicalstring = "CCC[C@H](NC(=O)C1(NC(=O)c2ccc(OC(F)(F)F)cc2)CCCCC1)C(=O)c1nnc(OC)o1"
quantitymeasured = "Ki"
measurednumber = 320


Ask | So what's the measured Ki for this one? "CCC[C@H](NC(=O)C1(NC(=O)c2ccc(OC(F)(F)F)cc2)CCCCC1)C(=O)c1nnc(-c2cccs2)o1"
Reply | 760

Ask | For the compound shown here, "CCC[C@H](NC(=O)OC(C)(C)C)C(=O)c1nnc(C(C)C)o1" , give the reported Ki.
Reply | 130000

Ask | Name the reported Ki value associated with the compound "CCC[C@H](NC(=O)C1(NC(=O)c2ccc(OC(F)(F)F)cc2)CCCCC1)C(=O)c1nnc(C(C)(C)C)o1"
Reply | 17000

Ask | What does the data say about its Ki? Entry: "CCC[C@H](NC(=O)C1(NC(=O)c2ccc(OC(F)(F)F)cc2)CCCCC1)C(=O)c1nnc(CC)o1"
Reply | 470

Ask | Which Ki value is on record for "CCC[C@H](NC(=O)CCc1ccccc1)C(=O)c1nnc(-c2ccco2)o1" ?
Reply | 2600

====

Target: Procathepsin L (Homo sapiens, UniProt P07711)
Sequence (P07711 whole entry): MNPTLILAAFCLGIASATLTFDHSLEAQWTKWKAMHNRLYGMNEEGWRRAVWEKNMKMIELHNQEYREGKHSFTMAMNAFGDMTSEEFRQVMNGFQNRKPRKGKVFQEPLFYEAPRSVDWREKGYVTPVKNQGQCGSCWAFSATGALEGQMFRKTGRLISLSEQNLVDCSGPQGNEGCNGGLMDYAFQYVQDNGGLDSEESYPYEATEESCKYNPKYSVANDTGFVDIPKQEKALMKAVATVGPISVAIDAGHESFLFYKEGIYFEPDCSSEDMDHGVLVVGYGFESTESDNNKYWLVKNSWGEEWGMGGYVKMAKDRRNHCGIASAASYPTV
Cut-off 8 µM on Ki: below means T, at or above means F.

// below: answered compounds
[[record]]
chemicalstring = "CCC[C@H](NC(=O)OC(C)(C)C)C(=O)c1nnc(-c2ccc(N(C)C)cc2)o1"
classassignment = "F"

[[record]]
chemicalstring = "CCC[C@H](NC(=O)OC(C)(C)C)C(=O)c1nnc(C(C)C)o1"
classassignment = "F"

[[record]]
chemicalstring = "CCC[C@H](NC(=O)C1(NC(=O)c2ccc(OC(F)(F)F)cc2)CCCCC1)C(=O)c1nnc(-c2ccc(OC)cc2)o1"
classassignment = "F"


Ask | In plain terms, does "CCC[C@H](NC(=O)[C@H](CC(C)C)C(=O)OCc1ccccc1)C(=O)c1nnc(-c2ccco2)o1" come in under 8 µM for Ki?
Reply | T

Ask | A record lists "CCC[C@H](NC(=O)C1(NC(=O)c2ccc(N(C)C)cc2)CCCCC1)C(=O)c1nnc(-c2ccco2)o1" . Is its Ki below 8 µM?
Reply | T

Ask | Is it true that Ki reported for "CCC[C@H](NC(=O)C1(NC(=O)c2ccc(OC(F)(F)F)cc2)CCCCC1)C(=O)c1nnc(-c2ccccc2)o1" is less than 8 µM?
Reply | F

Ask | Check if Ki falls below 8 µM for "CCC[C@H](NC(=O)C1(NC(=O)OC(C)(C)C)CCCCC1)C(=O)c1nnc(-c2ccco2)o1" .
Reply | F

Ask | Does this compound meet the criterion Ki < 8 µM? "CCC[C@H](NC(=O)C1(NC(=O)c2ccc(F)cc2)CCCCC1)C(=O)c1nnc(-c2ccco2)o1"
Reply | T

Ask | Does the reported Ki of "CCC[C@H](NC(=O)C1(NC(=O)c2ccc(OC(F)(F)F)cc2)CCCCC1)C(=O)c1nnc(-c2cccs2)o1" stay below 8 µM?
Reply | T

====

Biological target: Cathepsin B (Homo sapiens)
Mark T only when Ki stays strictly below 2 µM. Values equal to the cut-off are F.

[[record]]
chemicalstring = "CCC[C@H](NC(=O)C1(NC(=O)c2ccc(OC(F)(F)F)cc2)CCCCC1)C(=O)c1nnc(C(C)C)o1"
classassignment = "T"

[[record]]
chemicalstring = "CCC[C@H](NC(=O)C1(NC(=O)c2ccc(OC(F)(F)F)cc2)CCCCC1)C(=O)c1nnc(C(C)(C)C)o1"
classassignment = "F"

[[record]]
chemicalstring = "CCC[C@H](NC(=O)OC(C)(C)C)C(=O)c1nnc(-c2cccs2)o1"
classassignment = "F"


Ask | Item "CCC[C@H](NC(=O)C1(NC(=O)c2ccc(N(C)C)cc2)CCCCC1)C(=O)c1nnc(-c2ccco2)o1" : Ki beneath 2 µM, strictly?
Reply | T

Ask | is_below(Ki, 2 µM) for "CCC[C@H](NC(=O)C1(NC(=O)c2ccc(OC(F)(F)F)cc2)CCCCC1)C(=O)c1nnc(-c2cccc(OC)c2)o1" ?
Reply | F

====

The listing below reports Ki for molecules tested on Cathepsin K (Homo sapiens, UniProt P43235).
Sequence (P43235 whole entry): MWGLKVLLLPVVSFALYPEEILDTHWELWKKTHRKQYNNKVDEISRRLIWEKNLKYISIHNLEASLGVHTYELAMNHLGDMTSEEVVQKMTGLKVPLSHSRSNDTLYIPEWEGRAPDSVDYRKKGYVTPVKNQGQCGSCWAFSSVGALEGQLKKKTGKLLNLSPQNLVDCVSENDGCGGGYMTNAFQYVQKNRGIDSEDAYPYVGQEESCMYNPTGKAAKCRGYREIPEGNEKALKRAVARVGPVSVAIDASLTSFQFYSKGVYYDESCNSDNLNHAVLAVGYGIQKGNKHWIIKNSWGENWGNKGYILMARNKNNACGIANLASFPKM
Use nM as the unit, but write only the number.

[[record]]
chemicalstring = "CCC[C@H](NC(=O)C1(NC(=O)c2ccc(OC(F)(F)F)cc2)CCCCC1)C(=O)c1nnc(OC)o1"
assaytarget = "Cathepsin K (Homo sapiens, UniProt P43235)"
measurednumber = 3.3

[[record]]
chemicalstring = "CCC[C@H](NC(=O)C1(NC(=O)c2ccc(OC(F)(F)F)cc2)CCCCC1)C(=O)c1nnc(C(C)(C)C)o1"
assaytarget = "Cathepsin K (Homo sapiens, UniProt P43235)"
measurednumber = 1300

[[record]]
chemicalstring = "CCC[C@H](NC(=O)OCC(C)C)C(=O)c1nnc(-c2ccco2)o1"
assaytarget = "Cathepsin K (Homo sapiens, UniProt P43235)"
measurednumber = 500


Ask | What value of Ki has been recorded for this entry: "CCC[C@H](NC(=O)CCc1ccccc1)C(=O)c1nnc(-c2ccco2)o1"
Reply | 9600

Ask | May I ask what Ki has been recorded for "CCC[C@H](NC(=O)OC(C)(C)C)C(=O)c1nnc(-c2ccc(N(C)C)cc2)o1" ?
Reply | 33000

Ask | If you can, please state the reported Ki value of "CCC[C@H](NC(=O)C1(NC(=O)c2ccc(OC(F)(F)F)cc2)CCCCC1)C(=O)c1nnc(-c2ccccc2)o1" .
Reply | 29

====

For reference, Ki measured on Procathepsin L (Homo sapiens):
Quick note: give the figure in µM, leave out the unit.

[[record]]
chemicalstring = "CCC[C@H](NC(=O)[C@H](CC(C)C)NCC(F)(F)F)C(=O)c1nnc(-c2ccco2)o1"
quantitymeasured = "Ki"
measurednumber = 2.1

[[record]]
chemicalstring = "CCC[C@H](NC(=O)C1(NC(=O)c2ccc(OC(F)(F)F)cc2)CCCCC1)C(=O)c1nnc(-c2ccc(C(F)(F)F)cc2)o1"
quantitymeasured = "Ki"
measurednumber = 11

[[record]]
chemicalstring = "CCC[C@H](NC(=O)CCc1ccccc1)C(=O)c1nnc(-c2ccco2)o1"
quantitymeasured = "Ki"
measurednumber = 100

[[record]]
chemicalstring = "CCC[C@H](NC(=O)C1(NC(=O)c2ccc(OC(F)(F)F)cc2)CCCCC1)C(=O)c1nnc(C(C)C)o1"
quantitymeasured = "Ki"
measurednumber = 4.6

[[record]]
chemicalstring = "CCC[C@H](NC(=O)C1(NC(=O)c2ccc(OC(F)(F)F)cc2)CCCCC1)C(=O)c1nnc(OC)o1"
quantitymeasured = "Ki"
measurednumber = 0.16

[[record]]
chemicalstring = "CCC[C@H](NC(=O)OCC(C)C)C(=O)c1nnc(-c2ccco2)o1"
quantitymeasured = "Ki"
measurednumber = 14

[[record]]
chemicalstring = "CCC[C@H](NC(=O)C1(NC(=O)c2ccc(OC(F)(F)F)cc2)CCCCC1)C(=O)c1nnc(-c2cccc(OC)c2)o1"
quantitymeasured = "Ki"
measurednumber = 7.5


Moving on to the next compound.
Ask | Reported Ki, compound "CCC[C@H](NC(=O)C1(NC(=O)c2ccc(OC(F)(F)F)cc2)CCCCC1)C(=O)c1nnc(-c2cccc(C(F)(F)F)c2)o1" : ____
Reply | 1.4

====

compounds and their reported Ki
Target: Cathepsin B (Homo sapiens)
Reply with just the number (in µM).

Use the examples below as a reference point.
[[record]]
chemicalstring = "CCC[C@H](NC(=O)Cc1ccccc1)C(=O)c1nnc(-c2ccco2)o1"
unittag = "µM"
measurednumber = 110

[[record]]
chemicalstring = "CCC[C@H](NC(=O)C1(NC(=O)c2ccc(OC(F)(F)F)cc2)CCCCC1)C(=O)c1nnc(-c2cccs2)o1"
unittag = "µM"
measurednumber = 0.27


Ask | Quick one: Ki of "CCC[C@H](NC(=O)C1(NC(=O)c2ccc(OC(F)(F)F)cc2)CCCCC1)C(=O)c1nnc(-c2ccccc2)o1" ?
Reply | 73
